Molecular target: Bmx(h) (Homo sapiens)
Construct: purchased Upstate Biotechnology (Dundee, UK), KinaseProfiler service
Sequence (P51813 1-675): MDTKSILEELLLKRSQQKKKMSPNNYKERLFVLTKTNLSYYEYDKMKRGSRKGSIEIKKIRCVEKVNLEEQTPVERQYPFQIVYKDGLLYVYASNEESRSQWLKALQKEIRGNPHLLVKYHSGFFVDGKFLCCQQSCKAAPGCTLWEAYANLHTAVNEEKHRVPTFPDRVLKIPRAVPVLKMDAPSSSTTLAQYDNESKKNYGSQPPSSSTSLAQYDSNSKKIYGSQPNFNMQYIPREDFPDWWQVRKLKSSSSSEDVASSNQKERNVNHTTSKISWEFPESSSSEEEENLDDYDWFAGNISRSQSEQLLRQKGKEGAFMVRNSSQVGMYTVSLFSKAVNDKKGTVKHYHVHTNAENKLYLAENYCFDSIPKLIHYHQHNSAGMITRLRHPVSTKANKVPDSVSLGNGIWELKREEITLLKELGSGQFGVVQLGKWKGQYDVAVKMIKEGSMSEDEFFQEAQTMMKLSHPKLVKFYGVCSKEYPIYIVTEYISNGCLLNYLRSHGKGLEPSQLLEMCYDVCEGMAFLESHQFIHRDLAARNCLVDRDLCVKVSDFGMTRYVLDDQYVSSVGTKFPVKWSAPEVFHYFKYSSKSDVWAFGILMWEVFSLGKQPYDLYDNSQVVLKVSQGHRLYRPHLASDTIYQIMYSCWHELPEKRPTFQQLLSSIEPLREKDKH
Test: Upstate KinaseProfiler enzyme assay, Bmx
Type: biochemical
Details: 500 nM compound; read-out: Percent inhibition at 500 nM Bmx(h)
Measured inhibition at 0.5 µM of individual entries
Quick reminder: number only, in %, skip the unit.

C=CC(=O)Nc1ccc(Sc2nc(Nc3ccc(CNS(C)(=O)=O)cc3)ncc2C)cc1 :: 92
C=CC(=O)Nc1ccc(Sc2nc(Nc3ccc(OCCN4CCOCC4)cc3)ncc2C)cc1 :: 97
CC#CC(=O)Nc1ccc(Sc2ccnc(Nc3ccc(N4CCOCC4)cc3)n2)cc1 :: 100

Query :: So what's the measured inhibition at 0.5 µM for this one? `C=CC(=O)Nc1ccc(Sc2ccnc(Nc3ccc(OC)cc3)n2)cc1`
Result :: 100

Query :: So what's the measured inhibition at 0.5 µM for this one? `C=CC(=O)Nc1ccc(Sc2nc(Nc3ccc(N4CCC(CO)CC4)cc3)ncc2C)cc1`
Result :: 95

Query :: So what's the measured inhibition at 0.5 µM for this one? `N#Cc1ncn(Cc2ccc(Sc3ccnc(Nc4ccc(N5CCOCC5)cc4)n3)cc2)c1C#N`
Result :: 100

Query :: So what's the measured inhibition at 0.5 µM for this one? `C=CC(=O)Nc1cccc(Sc2ccnc(Nc3cccc(N4CCOCC4)c3)n2)c1`
Result :: 100

This collection of values is drawn from patent US8846704B2.
